- Tested on: BVDV
- protocol.description: Screening of antiviral compounds for anti-BVDV activity in MDBK cells; virus titre by immunoperoxidase monolayer assay
- Format: cell-based, bovine viral diarrhea virus
- stated.conditions: 12.5 μM compound; BVDV MOI 0.5; cell lysates, day 3; titre as % of no-antiviral control
Hi! Just check whether Day 3 Cell Lysates % Control is below 0.01%. Below gives True, equal or above gives False.

Below are worked cases with known answers.
cpd_smiles=CC(C)NC(=N)c1ccc2[nH]c(-c3ccc(-c4ccc(N)cc4)o3)nc2c1 group_label=True
cpd_smiles=COc1cc(NC(=N)N)ccc1-c1ccc(-c2ccc(NC(=N)N)cc2OC)o1 group_label=False
cpd_smiles=N=C(N)Nc1ccc(-c2ccc(-c3ccc(NC(=N)N)cc3C(F)(F)F)o2)c(C(F)(F)F)c1 group_label=False

Task item: Identify whether the compound "O=[N+]([O-])c1ccc(-c2ccc(-c3nc4ccc(C5=NCCN5)cc4[nH]3)o2)cc1" records Day 3 Cell Lysates % Control below 0.01%.
Reply: True
